test system: IgM antibody production from murine spleen B cells; test: Effects on the IgM antibody production from murine spleen cells (LPS + IL4); type: cell-based, BALB/c mouse; conditions: Mus musculus, B-cell, 168 h; spleen B cells, LPS 10 μg/ml, IL4 100 U/ml, 7 days, enzyme-immunoassay; read-out: IC50 value, IgM antibody production
result type: IC50

Previously resolved entries follow.
{"chemical string": "CO[C@H]1C=C[C@H]2CO[C@@H]1O2", "result type": "IC50", "observed measurement": "> 1000 µg/mL"}
{"chemical string": "C/C=C/C(=O)O[C@H]1C=C[C@H]2CO[C@@H]1O2", "result type": "IC50", "observed measurement": "< 0.001 µg/mL"}

Query: For the molecule O=C(CCl)O[C@H]1C=C[C@H]2CO[C@@H]1O2 , what IC50 is on record?
Response: < 0.001 µg/mL

Query: For the molecule O=C(CCCCCBr)O[C@H]1C=C[C@H]2CO[C@@H]1O2 , what IC50 is on record?
Response: < 0.001 µg/mL

Query: For the molecule C#C[C@]1(O)C=C[C@H]2CO[C@@H]1O2 , what IC50 is on record?
Response: > 1000 µg/mL
